Experiment: In vivo toxicological study in rats: haematology
Parameters: species or system rats of the Wistar strain
Settings: male, 30 mg/kg oral daily 7 d
Would you kindly list MCHC for each of these molecules?
Please respond with the number in g/dL and leave the unit unwritten.

Lookup result for COc1ccccc1NC(=O)N1CCc2c(sc(NC(=O)c3cccc4ccccc34)c2C#N)C1 [PKL-A152] ; measured MCHC: 33.8

Lookup result for N#Cc1c(NC(=O)c2cccc3ccccc23)sc2c1CCN(C(=O)Nc1ccccc1OC(F)(F)F)C2 [PKL-A159] ; measured MCHC: 35.4

Lookup result for N#Cc1c(NC(=O)c2cccc3ccccc23)sc2c1CCN(CC(=O)Nc1cccc(Br)c1)C2 [PKL-B171] ; measured MCHC: 35.4

Lookup result for COc1ccc(C(=O)Nc2sc3c(c2C#N)CCCCC3)cc1OC [PKL-A135] ; measured MCHC: 33.9

----------
Would you kindly list MCHC for each of these compounds?
Experiment: In vivo toxicological study in rats: haematology
Set-up: species or system rats of the Wistar strain
Conditions: female, 300 mg/kg oral daily 7 d
Please respond with the number in g/dL and leave the unit unwritten.

Lookup result for COc1ccc(C(=O)Nc2sc3c(c2C#N)CCCCC3)cc1OC [PKL-A135] ; measured MCHC: 34.2

Lookup result for COc1ccccc1NC(=O)N1CCc2c(sc(NC(=O)c3cccc4ccccc34)c2C#N)C1 [PKL-A152] ; measured MCHC: 34.1

Lookup result for N#Cc1c(NC(=O)c2cccc3ccccc23)sc2c1CCN(CC(=O)Nc1cccc(Br)c1)C2 [PKL-B171] ; measured MCHC: 35.7

Lookup result for N#Cc1c(NC(=O)c2cccc3ccccc23)sc2c1CCN(C(=O)Nc1ccccc1OC(F)(F)F)C2 [PKL-A159] ; measured MCHC: 35.2

----------
Tested on: HepG2 cells
Test: Triglyceride (TAG) measurement assay, one week steatosis model
Type: cell-based, human
Settings: Homo sapiens, HepG2, 168 h; ratio between TAG content and cell viability; Control 100.0; read-out: TAG/cell viability
The following ranges of activity at 10 µM define the classes used here: group A (below 30%), group B (30% to below 50%), group C (50% or more)

Input: Into which category would you place `N#Cc1c(NC(=O)c2cccc3ccccc23)sc2c1CCN(C(=O)c1cccc(F)c1)C2` ?
Output: group B

Input: Into which category would you place `COc1ccccc1NC(=O)N1CCc2c(sc(NC(=O)c3cccc4ccccc34)c2C#N)C1` ?
Output: group A

Input: Into which category would you place `N#Cc1c(NC(=O)c2cccc3ccccc23)sc2c1CCN(CC(=O)Nc1cccc(Br)c1)C2` ?
Output: group C

Input: Into which category would you place `N#Cc1c(NC(=O)c2cccc3ccccc23)sc2c1CCN(C(=O)N(c1ccccc1)c1ccccc1)C2` ?
Output: group B

Input: Into which category would you place `N#Cc1c(NC(=O)c2cccc3ccccc23)sc2c1CCN(S(=O)(=O)c1cccc3ccccc13)C2` ?
Output: group C

Input: Into which category would you place `N#Cc1c(NC(=O)c2cccc3ccccc23)sc2c1CCN(CCn1cnc3ccccc31)C2` ?
Output: group B

Input: Into which category would you place `CN(C(=O)N1CCc2c(sc(NC(=O)c3cccc4ccccc34)c2C#N)C1)c1ccccc1` ?
Output: group A

Input: Into which category would you place `COc1cccc(NC(=O)N2CCc3c(sc(NC(=O)c4cccc5ccccc45)c3C#N)C2)c1` ?
Output: group A

Input: Into which category would you place `COc1ccc(C(=O)N2CCc3c(sc(NC(=O)c4cccc5ccccc45)c3C#N)C2)cc1OC` ?
Output: group B

Input: Into which category would you place `N#Cc1c(NC(=O)c2cccc3ccccc23)sc2c1CCN(C(=O)Nc1ccccc1Br)C2` ?
Output: group B

Input: Into which category would you place `CC(=O)N1CCc2c(sc(NC(=O)c3cccc4ccccc34)c2C#N)C1` ?
Output: group A

Input: Into which category would you place `COc1ccc(S(=O)(=O)N2CCc3c(sc(NC(=O)c4cccc5ccccc45)c3C#N)C2)cc1OC` ?
Output: group C

Input: Into which category would you place `N#Cc1c(NC(=O)c2cccc3ccccc23)sc2c1CCCCC2` ?
Output: group C
